Values compiled from ChEMBL document CHEMBL6177960.

Recorded Vd at 24 h, one value per entry.
- run-description: in vivo
- assay-context: male, CD-1(ICR), mouse, iv, 1 mg/kg
- Description: Apparent volume of distribution in male CD-1(ICR) mouse at 1 mg/kg, iv measured after 1440 mins by LC-MS/MS analysis
reported-endpoint: Vd at 24 h

> print(dat)
                               query.smiles  observed.result
1  C[C@H]1CCCN(Cc2cc3c(C(F)(F)F)cn(-c4cccc([C@]5(c6nncn6C)C[C@@H](C)C5)c4)c(=O)c3[nH]2)C1        4.66 L/kg
2  C[C@H]1CCCN(Cc2cc3c(C4CC4)cn(-c4cccc([C@]5(c6nncn6C)C[C@@H](C)C5)c4)c(=O)c3[nH]2)C1        4.82 L/kg
3  C[C@H]1CCCN(Cc2cc3c(c(C(F)(F)F)c2)CN(c2cccc([C@]4(c5nncn5C)C[C@@H](C)C4)c2)C3=O)C1        1.62 L/kg
